Target: BRAF G466V (Homo sapiens, UniProt P15056, G466V)
Construct: expressed in transfected cells
Sequence (P15056 whole entry G466V): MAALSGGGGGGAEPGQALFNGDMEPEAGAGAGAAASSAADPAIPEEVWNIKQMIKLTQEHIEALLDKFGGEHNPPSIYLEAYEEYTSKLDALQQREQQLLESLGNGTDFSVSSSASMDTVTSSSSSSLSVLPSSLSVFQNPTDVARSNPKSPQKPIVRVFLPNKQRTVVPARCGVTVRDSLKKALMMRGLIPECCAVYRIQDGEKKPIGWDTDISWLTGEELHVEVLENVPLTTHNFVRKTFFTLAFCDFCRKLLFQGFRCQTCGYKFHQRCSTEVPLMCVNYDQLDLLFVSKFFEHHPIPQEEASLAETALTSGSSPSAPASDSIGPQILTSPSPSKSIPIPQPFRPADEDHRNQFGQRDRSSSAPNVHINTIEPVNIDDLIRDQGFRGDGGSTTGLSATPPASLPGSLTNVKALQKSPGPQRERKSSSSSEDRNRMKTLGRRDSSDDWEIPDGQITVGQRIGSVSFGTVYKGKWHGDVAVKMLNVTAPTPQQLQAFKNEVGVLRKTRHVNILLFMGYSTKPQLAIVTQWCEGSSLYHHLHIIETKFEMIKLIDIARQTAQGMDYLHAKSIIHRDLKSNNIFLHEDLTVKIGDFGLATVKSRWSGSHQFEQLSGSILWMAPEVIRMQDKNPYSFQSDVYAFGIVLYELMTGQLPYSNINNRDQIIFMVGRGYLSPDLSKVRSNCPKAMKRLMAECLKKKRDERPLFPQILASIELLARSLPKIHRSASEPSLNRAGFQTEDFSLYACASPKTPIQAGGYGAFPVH
Assay: Cellular assay of target protein degradation, T-Rex 293 cells stably transfected with HA-BRAF G466V (HA immunofluorescence, high content imaging)
Assay type: cell-based
Conditions: half maximal degradation, T-Rex 293 HA-BRAF G466V; read-out: BRaf G466V DC50

compound	DC50
O=C1CC[C@H](N2Cc3cc(N4CCC(CN5CCN(C6(c7ncc(-c8cnc9[nH]cc(C(=O)c%10c(F)ccc(NS(=O)(=O)N%11CC[C@@H](F)C%11)c%10F)c9c8)cn7)CC6)CC5)CC4)ccc3C2=O)C(=O)N1 [Compound 201]	1 to 10 nM
O=C1CCN(c2ccc(N3CCC(CN4CC5(C4)CN(c4ccc(-c6cnc7[nH]cc(C(=O)c8c(F)ccc(NS(=O)(=O)N9CC[C@@H](F)C9)c8F)c7c6)cc4)C5)CC3)cc2F)C(=O)N1 [Compound 156]	1 to 10 nM
O=C1CC[C@@H](NC(=O)c2ccc(N3CCC(CN4CCN(c5ccc(-c6cnc7[nH]cc(C(=O)c8c(F)ccc(NS(=O)(=O)N9CC[C@@H](F)C9)c8F)c7c6)cc5)CC4)CC3)cc2F)C(=O)N1 [Compound 340]	1 to 10 nM
O=C1CC[C@@H](N2Cc3cc(CCCCN4CC5(C4)CN(c4ccc(-c6cnc7[nH]cc(C(=O)c8c(F)ccc(NS(=O)(=O)N9CC[C@@H](F)C9)c8F)c7c6)cc4)C5)ccc3C2=O)C(=O)N1 [Compound 63]	1 to 10 nM
O=C1CC[C@@H](NC(=O)c2ccc(N3CCN(CC4CCN(c5ccc(-c6cnc7[nH]cc(C(=O)c8c(F)ccc(NS(=O)(=O)N9CC[C@@H](F)C9)c8F)c7c6)cc5)CC4)CC3)cc2F)C(=O)N1 [Compound 342]	1 to 10 nM
